In this section, each of the compounds is paired with its reported CC50.
test system: MCF7; assay: Cytotoxicity against human MCF7 cells assessed as reduction in cell viability after 2 days by MTT assay; format: functional; settings: MCF7, 48 h, read-out: LC50 (the source's name)
Readout type: CC50

Compound structure | Result
CC(=O)c1cc(/C=C/c2ccc(F)cc2)cc2cc(-c3ccc(F)cc3)[nH]c12 | > 100 µM
CC(=O)c1cc(/C=C/c2ccc(F)cc2)cc2cc(-c3ccccc3)[nH]c12 | 18.5 µM
CC(=O)c1cc(-c2ccc(F)cc2)cc2cc(-c3ccc(F)cc3)[nH]c12 | 87.4 µM
CC(=O)c1cc(/C=C/c2ccccc2)cc2cc(-c3ccccc3)[nH]c12 | > 100 µM
CC(=O)c1cc(-c2ccccc2)cc2cc(-c3ccc(F)cc3)[nH]c12 | > 100 µM
CC(=O)c1cc(-c2ccc(F)cc2)cc2cc(-c3ccccc3)[nH]c12 | > 100 µM
COc1ccc(-c2cc(C(C)=O)c3[nH]c(-c4ccccc4)cc3c2)cc1 | 47.8 µM
COc1ccc(-c2cc3cc(-c4ccc(F)cc4)cc(C(C)=O)c3[nH]2)cc1 | > 100 µM
COc1ccc(-c2cc(C(C)=O)c3[nH]c(-c4ccc(F)cc4)cc3c2)cc1 | 16.8 µM
CC(=O)c1cc(/C=C/c2ccccc2)cc2cc(-c3ccc(F)cc3)[nH]c12 | > 100 µM
CC(=O)c1cc(-c2ccccc2)cc2cc(-c3ccccc3)[nH]c12 | > 100 µM

* * *

In this section, each of the compounds is paired with its reported CC50.
test system: MCF7; assay: Cytotoxicity against human MCF7 cells assessed as reduction in cell viability after 2 days by MTT assay; assay type: functional; details: MCF7, 48 h, read-out: LC50 (the source's name)

Compound | System name | Relation qualifier | CC50, µM
COc1ccc(-c2cc3cc(/C=C/c4ccc(F)cc4)cc(C(C)=O)c3[nH]2)cc1 | MCF7 | = | 83
COc1ccc(-c2cc(C(C)=O)c3[nH]c(-c4ccc(OC)cc4)cc3c2)cc1 | MCF7 | = | 25.2
COc1cccc2c1C(=O)c1c(O)c3c(c(O)c1C2=O)C[C@@](O)(C(=O)CO)C[C@@H]3O[C@H]1C[C@H](N)[C@H](O)[C@H](C)O1.Cl [DOXORUBICIN HYDROCHLORIDE] | MCF7 | = | 1.07
COc1ccc(-c2cc3cc(-c4ccccc4)cc(C(C)=O)c3[nH]2)cc1 | MCF7 | > | 100

* * *

system: MCF7; assay: Cytotoxicity against human MCF7 cells assessed as cell viability at 10 uM after 2 days by MTT assay relative to control; format: functional; details: MCF7, 48 h, read-out: Activity
In this section, each of the compounds is paired with its reported viability at 10 µM.

Compound structure | viability at 10 µM [%]
COc1ccc(-c2cc(C(C)=O)c3[nH]c(-c4ccccc4)cc3c2)cc1 | 49.5
COc1ccc(-c2cc3cc(-c4ccc(F)cc4)cc(C(C)=O)c3[nH]2)cc1 | 77.5
COc1ccc(-c2cc3cc(-c4ccccc4)cc(C(C)=O)c3[nH]2)cc1 | 64.5
COc1ccc(-c2cc(C(C)=O)c3[nH]c(-c4ccc(OC)cc4)cc3c2)cc1 | 56.4
CC(=O)c1cc(-c2ccc(F)cc2)cc2cc(-c3ccc(F)cc3)[nH]c12 | 90.6
CC(=O)c1cc(-c2ccccc2)cc2cc(-c3ccccc3)[nH]c12 | 96.2
